The reported measurements were obtained from a melting point compilation (Tetko et al.; mined from patent text by program, amines drawn as free bases though some values may be those of a salt).

observable: melting point

[[record]]
molecule = "CCOC(=O)Cn1nc(-c2ccc(C)cc2)c(C(N)=O)c1N"
observable = "melting point"
result = "179 °C"


Given item `COC(C)(CC(=O)Nc1ccccc1)OC` , the value recorded as its melting point is 80 °C

Reported melting point of `O=C(Cn1ncc(-c2ccccc2)c1-c1ccccc1)NCCCO` : 138 to 139 °C

The molecule identified as `Cc1cc(C(O)(C(F)(F)F)C(F)(F)F)c2ccccc2c1NS(C)(=O)=O` registered its melting point at 174 °C

Record `CCOc1cc(C(=O)O)cc(S(N)(=O)=O)c1-c1ccccc1` . Reported melting point: 149 to 150 °C

Given item `COC(=O)/C(=C/c1ccc2[nH]ccc2c1)N=[N+]=[N-]` , the value recorded as its melting point is 130 to 133 °C

COc1ccc(N2CCN(c3c(C)c(C)c4c(c3C)C(O)(c3cccc(C)c3)C(C)(C)O4)CC2)cc1 (stereo unspecified) has a reported melting point of 122 to 125 °C

The molecule identified as `O=C1CC(c2cccc(-n3ccnn3)c2)=Nc2ccc(-c3ccccc3F)cc2N1` registered its melting point at 209 to 212 °C
